The reported measurements were obtained from ChEMBL document CHEMBL5042484.

Test summary: Drug concentration in C57BL/6J mouse plasma at 50 mg/kg, ip measured from 0.5 to 5 hrs by analytical analysis
Assay type: ADME, organism-based
Condition summary: in vivo, time 0.5-5 hrs
Recorded metric: concentration (µM)

{"Compound structure": "Cc1ccc(NC2CNC2)cc1C(=O)N[C@H](C)c1cccc(-c2ccc(CN3CCCC3)s2)c1", "Recorded metric": "concentration", "Recorded value": 12}

###

# Kd annotations
Test summary: Binding affinity to […] sensor chip immobilized His-tagged SARS-CoV-2 PLpro assessed as equilibrium dissociation constant by surface plasmon resonance analysis
Set-up: species or system Severe acute respiratory syndrome coronavirus 2

{"Compound structure": "Cc1ccc(NC2CNC2)cc1C(=O)N[C@H](C)c1cccc(-c2ccc(CNC3CCCC3)s2)c1", "Operator symbol": "=", "Kd, µM": 0.235}
{"Compound structure": "CNC(=O)C[C@@H](NC(=O)c1cc(N(C)C2CNC2)ccc1C)c1cccc2ccccc12", "Operator symbol": ">", "Kd, µM": 1000}
